species on record: Rattus norvegicus; assay: Open TG-GATES - Regimen: Daily Repeat; assay type: toxicity, organism-based, Sprague-Dawley; design: regimen Daily Repeat, gender Male, age 6 weeks; conditions: in vivo, po, 300 mg/kg, […], tissue Plasma, route gavage, dose level Middle, time 14 day
ASSAY_METRIC: CRE (mg/dL)
The figure you give is taken to be in mg/dL; do not add the unit.

Take a look at these entries with their results.
{"LINE_NOTATION": "COC(=O)C1=C(C)NC(C)=C(C(=O)OC)C1c1ccccc1[N+](=O)[O-]", "CRE / mg/dL": 0.2}
{"LINE_NOTATION": "CN/C(=N/CCSCc1nc[nH]c1C)NC#N", "CRE / mg/dL": 0.4}
{"LINE_NOTATION": "CCOc1ccc(NC(C)=O)cc1", "CRE / mg/dL": 0.2}
{"LINE_NOTATION": "Cc1nnc2n1-c1ccc(Cl)cc1C(c1ccccc1Cl)=NC2", "CRE / mg/dL": 0.2}
{"LINE_NOTATION": "CNC(=C[N+](=O)[O-])NCCSCc1ccc(CN(C)C)o1", "CRE / mg/dL": 0.5}

Q: Form field: reported CRE of O=C(OC[C@H]1O[C@@H](OC(=O)c2cc(O)c(O)c(OC(=O)c3cc(O)c(O)c(O)c3)c2)[C@H](OC(=O)c2cc(O)c(O)c(OC(=O)c3cc(O)c(O)c(O)c3)c2)[C@@H](OC(=O)c2cc(O)c(O)c(OC(=O)c3cc(O)c(O)c(O)c3)c2)[C@@H]1OC(=O)c1cc(O)c(O)c(OC(=O)c2cc(O)c(O)c(O)c2)c1)c1cc(O)c(O)c(OC(=O)c2cc(O)c(O)c(O)c2)c1
Result: 0.6

###

species: Rattus norvegicus; assay: Open TG-GATES - Regimen: Daily Repeat; type: toxicity, organism-based, Sprague-Dawley; set-up: regimen Daily Repeat, gender Male, age 6 weeks; conditions: in vivo, po, 0 mg/kg, […], tissue Plasma, route gavage, dose level Control, time 28 day
# CRE annotations
The figure you give is taken to be in mg/dL; do not add the unit.

Take a look at these entries with their results.
{"MOLECULE": "CN1C(=O)CCS(=O)(=O)C1c1ccc(Cl)cc1 (stereo not drawn)", "ASSAY_METRIC": "CRE", "UNIT_ANNOTATION": "mg/dL", "VALUE_MEASURED": 0.3}
{"MOLECULE": "CN(C)CCC(c1ccc(Cl)cc1)c1ccccn1 (stereo not drawn)", "ASSAY_METRIC": "CRE", "UNIT_ANNOTATION": "mg/dL", "VALUE_MEASURED": 0.2}
{"MOLECULE": "CC(C)NNC(=O)c1ccncc1", "ASSAY_METRIC": "CRE", "UNIT_ANNOTATION": "mg/dL", "VALUE_MEASURED": 0.2}

Q: Form field: reported CRE of CN/C(=N/CCSCc1nc[nH]c1C)NC#N
Result: 0.5

Q: Form field: reported CRE of Cc1nnc2n1-c1ccc(Cl)cc1C(c1ccccc1Cl)=NC2
Result: 0.2

Q: Form field: reported CRE of NC1=NC(=O)C(c2ccccc2)O1 (stereo not drawn)
Result: 0.2

Q: Form field: reported CRE of Nc1c2c(nc3ccccc13)CCCC2
Result: 0.2

Q: Form field: reported CRE of O=C(OC[C@H]1O[C@@H](OC(=O)c2cc(O)c(O)c(OC(=O)c3cc(O)c(O)c(O)c3)c2)[C@H](OC(=O)c2cc(O)c(O)c(OC(=O)c3cc(O)c(O)c(O)c3)c2)[C@@H](OC(=O)c2cc(O)c(O)c(OC(=O)c3cc(O)c(O)c(O)c3)c2)[C@@H]1OC(=O)c1cc(O)c(O)c(OC(=O)c2cc(O)c(O)c(O)c2)c1)c1cc(O)c(O)c(OC(=O)c2cc(O)c(O)c(O)c2)c1
Result: 0.6

Q: Form field: reported CRE of CNC(=C[N+](=O)[O-])NCCSCc1ccc(CN(C)C)o1
Result: 0.5

Q: Form field: reported CRE of CCCc1cc(=O)[nH]c(=S)[nH]1
Result: 0.7

Q: Form field: reported CRE of COC(=O)C1=C(C)NC(C)=C(C(=O)OC)C1c1ccccc1[N+](=O)[O-]
Result: 0.3

Q: Form field: reported CRE of Brc1ccccc1
Result: 0.2

Q: Form field: reported CRE of CCOc1ccc(NC(C)=O)cc1
Result: 0.3
